Biological target: HCV polymerase (NS5B570n-Con1) (Hepatitis C virus genotype 1b)
Construct: contains a 21 amino acid deletion at the C-terminus relative to the full-length HCV polymerase; 6-histidine (N); made in house; host or cells: E. coli strain BL21(DE) pLysS (pET17b)
Experiment: biochemical
Set-up: species or system HCV Con1 strain
Settings: IC50 HCV NS5B RNA Polymerase Assay, values without asterisk; 20 nM NS5B570n-Con1 enzyme, 20 nM cIRES RNA template
valueType: IC50 (nM)
Numbers only, in nM.

The following compounds have reported results that may help.
COc1c(CC(CN)c2ccc(NS(C)(=O)=O)cc2)cc(-c2ccc[nH]c2=O)cc1C(C)(C)C (centres unmarked) [I-191]    27
COc1c(NC(=O)c2ccc(NS(C)(=O)=O)c(F)c2)cc(-c2ccc[nH]c2=O)cc1C(C)(C)C [I-121]    7
COc1c(NC(=O)c2ccc(NS(C)(=O)=O)cc2C)cc(-c2ccc[nH]c2=O)cc1C(C)(C)C [I-282]    13
CC(C)(C)c1cc(/C=C/c2ccc(NS(C)(=O)=O)cc2C#N)cc(-c2ccc[nH]c2=O)c1 [I-147]    2

Please look at the following compound next.
Given the compound CC(C)(C)c1cc(/C=C/c2ccc(NS(C)(=O)=O)cn2)c(O)c(-c2ccc[nH]c2=O)c1 [I-167] , write its reported IC50. 21

---

Target: HCV polymerase (NS5B570n-Con1) (Hepatitis C virus genotype 1b, UniProt Q9WMX2)
Construct: contains a 21 amino acid deletion at the C-terminus relative to the full-length HCV polymerase; 6-histidine (N); made in house; host or cells: E. coli strain BL21(DE) pLysS (pET17b)
Experiment: biochemical
Parameters: species or system HCV Con1 strain
Conditions: IC50 HCV NS5B RNA Polymerase Assay, values without asterisk; 20 nM NS5B570n-Con1 enzyme, 20 nM cIRES RNA template
Hi there, I'd appreciate the recorded IC50 for every entry that follows.
Answers are plain numbers, in nM.

The following compounds have reported results that may help.
COc1c(/C=C/c2ccccc2)cc(-c2ccc[nH]c2=O)cc1C(C)(C)C    11
COc1c(C(=O)NC2CCCCC2)cc(-c2ccc[nH]c2=O)cc1C(C)(C)C    753
C/C(=C\c1cc(C(C)(C)C)cc(-c2ccc[nH]c2=O)c1O)c1ccc(NS(C)(=O)=O)cc1    308
COc1c(C(=O)NC2CC2)cc(-c2ccc[nH]c2=O)cc1C(C)(C)C    1620

Return reported IC50 values for all items listed beneath this line.
1. COc1c(C(=O)NCc2cncn2C)cc(-c2ccc[nH]c2=O)cc1C(C)(C)C
2. CC(C)(C)c1cc(/C=C/c2ccc(NS(C)(=O)=O)cc2)cc(-c2cc(F)c[nH]c2=O)c1
3. CCOc1nc(-c2cc(-c3ccc[nH]c3=O)cc(C(C)(C)C)c2OC)cc2ccc(NS(C)(=O)=O)cc12
4. COc1c(C(C)(C)C)cc(-c2ccc[nH]c2=O)c(O)c1CCc1ccc(NS(C)(=O)=O)cc1

1. 1340
2. 6
3. 3
4. 8

---

Hi there, I'd appreciate the recorded IC50 for every entry that follows.
Target: HCV polymerase (NS5B570n-Con1) (Hepatitis C virus genotype 1b)
Construct: contains a 21 amino acid deletion at the C-terminus relative to the full-length HCV polymerase; 6-histidine (N); made in house; host or cells: E. coli strain BL21(DE) pLysS (pET17b)
Experiment: biochemical
Design: species or system HCV Con1 strain
Conditions: IC50 HCV NS5B RNA Polymerase Assay (values with asterisk), values with asterisk: cIRES RNA template, 3 nM NS5B570n-Con1

The following compounds have reported results that may help.
COc1c(/C=C/c2ccc(NS(C)(=O)=O)cc2)cc(-c2ccc(C)[nH]c2=O)cc1C1(Cl)CC1    5 nM
CS(=O)(=O)Nc1ccc(/C=C/c2cc(-c3ccc[nH]c3=O)cc(C3(C(F)F)CC3)c2)cc1    1 nM
COc1c(/C=C/c2ccc(NS(=O)(=O)CCCN3CCCC3)cc2)cc(-c2cc(F)c[nH]c2=O)cc1C(C)(C)C    6 nM
COc1c(/C=C/c2ccc(NS(=O)(=O)CCN3CCCC3)cc2)cc(-c2cc(F)c[nH]c2=O)cc1C(C)(C)C    1 nM
COC(=O)c1cc(NS(C)(=O)=O)ccc1/C=C/c1cc(-c2cc(F)c[nH]c2=O)cc(C(C)(C)C)c1OC    4 nM

Return reported IC50 values for all items listed beneath this line.
1. COc1c(/C=C/c2ccc(NS(C)(=O)=O)cc2CN(C)C)cc(-c2cc(F)c[nH]c2=O)cc1C(C)(C)C
2. COc1c(/C=C/c2ncc(NS(C)(=O)=O)cc2C)cc(-c2ccc[nH]c2=O)cc1C(C)(C)C
3. COc1c(/C=C/c2ccc(NS(C)(=O)=O)cc2)cc(-c2ccc[nH]c2=O)c2c1C(C)(C)CC2
4. Cc1cc(-c2ccc[nH]c2=O)cc(C2(C)CCCC2)c1
5. COc1c(/C=C/c2ccncc2)cc(-c2ccc[nH]c2=O)cc1C(C)(C)C
6. COc1c(/C=C/c2ccc(NS(C)(=O)=O)cc2)cc(-c2ccc[nH]c2=O)cc1C1(OC)CC1

11 nM
3 nM
1 nM
5380 nM
5 nM
3 nM

---

Target: HCV polymerase (NS5B570n-Con1) (Hepatitis C virus genotype 1b)
Construct: contains a 21 amino acid deletion at the C-terminus relative to the full-length HCV polymerase; 6-histidine (N); made in house; host or cells: E. coli strain BL21(DE) pLysS (pET17b)
Assay: biochemical
Set-up: species or system HCV Con1 strain
Settings: IC50 HCV NS5B RNA Polymerase Assay, values without asterisk; 20 nM NS5B570n-Con1 enzyme, 20 nM cIRES RNA template
pIC50: −log10 of the molar value.
Criterion: pIC50 meeting or surpassing 8. Met: satisfied. Not met: not satisfied.

See these solved cases before continuing.
COc1c(/C=C/c2ccc(NS(C)(=O)=O)nc2)cc(-c2ccc[nH]c2=O)cc1C(C)(C)C [I-172]    satisfied
CC(C)(C)c1cc(Cc2ccccc2)c(O)c(-c2ccc[nH]c2=O)c1 [I-17]    not satisfied

Is pIC50 at least 8? Consider COc1c(/C=C/c2ccc(NC(C)=O)cn2)cc(-c2cc(F)c[nH]c2=O)cc1C(C)(C)C [I-169] not satisfied

Is pIC50 at least 8? Consider CC(C)(C)c1cc(-c2ccc[nH]c2=O)ccc1OC(F)F [I-6] not satisfied

---

Hi there, I'd appreciate the recorded pIC50 for every entry that follows.
Biological target: HCV polymerase (NS5B570n-Con1) (Hepatitis C virus genotype 1b)
Construct: contains a 21 amino acid deletion at the C-terminus relative to the full-length HCV polymerase; 6-histidine (N); made in house; host or cells: E. coli strain BL21(DE) pLysS (pET17b)
Assay: biochemical
Design: species or system HCV Con1 strain
Settings: IC50 HCV NS5B RNA Polymerase Assay, values without asterisk; 20 nM NS5B570n-Con1 enzyme, 20 nM cIRES RNA template
Give bare numbers, as −log10 of the molar value.

The following compounds have reported results that may help.
COc1c(C(=O)c2cccc(N)c2)cc(-c2ccc[nH]c2=O)cc1C(C)(C)C    8.05
COc1c(/C=C/c2ccc(N)nc2)cc(-c2ccc[nH]c2=O)cc1C(C)(C)C    8.40

Return reported pIC50 values for all items listed beneath this line.
1. COc1c(/C=C/c2ccc(N)nn2)cc(-c2ccc[nH]c2=O)cc1C(C)(C)C
2. CC(C)(C)c1cc(CCc2ccc(NS(C)(=O)=O)nc2)c(C#N)c(-c2ccc[nH]c2=O)c1
3. COCCN(C(=O)c1cc(-c2ccc[nH]c2=O)cc(C(C)(C)C)c1OC)C1CC1
4. CC(C)(C)c1cc(/C=C/c2ccc(NS(C)(=O)=O)cc2)c(O)c(-c2ccc[nH]c2=O)c1

1: 8.10; 2: 8.05; 3: 5.64; 4: 8.00

---

Biological target: HCV polymerase (NS5B570n-Con1) (Hepatitis C virus genotype 1b, UniProt Q9WMX2);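 also: recombinant His-tagged enzyme from E. coli, radiolabeled nucleotide incorporation into acid-insoluble RNA read by scintillation after filtration, no-enzyme background subtracted, activity relative to positive control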
Construct: contains a 21 amino acid deletion at the C-terminus relative to the full-length HCV polymerase; 6-histidine (N); made in house; host or cells: E. coli strain BL21(DE) pLysS (pET17b)
Assay: biochemical
Set-up: species or system HCV Con1 strain
Conditions: IC50 HCV NS5B RNA Polymerase Assay, values without asterisk; 20 nM NS5B570n-Con1 enzyme, 20 nM cIRES RNA template
Hi there, I'd appreciate the recorded IC50 for every entry that follows.
Give bare numbers, in nM.

COc1c(CCc2ccc(NS(C)(=O)=O)cn2)cc(-c2ccc[nH]c2=O)cc1C(C)(C)C    3
COc1c(NC(=O)c2ccc(NC3CC3)cc2)cc(-c2ccc[nH]c2=O)cc1C(C)(C)C    19
Cc1cc(-c2cc(Cl)c[nH]c2=O)cc(C(C)(C)C)c1    1960

Given the compound COc1c(CC(C)(CN)c2ccc(NS(C)(=O)=O)cc2)cc(-c2ccc[nH]c2=O)cc1C(C)(C)C (stereo not shown) , write its reported IC50. 84
